Reported pIC50 values for the following molecules.
experiment: Cytotoxicity against human LXFL 529L cells by propidium iodide-based fluorescence assay; type: functional, cell-based
pIC50: −log10 of the molar value.

{"molecule": "CCCCCCCC/[N+]([O-])=N/[C@@H](COC)C(N)=O [ELAIOMYCIN H]", "pIC50": 5.07}
{"molecule": "CCCCCC/C=C\\[N+]([O-])=N\\[C@@H](COC)[C@H](C)O [ELAIOMYCIN]", "pIC50": 4.83}

* * *

Property: GI50; scope: individual molecules
test system: HUVEC; experiment: Antiproliferative activity against HUVEC; assay type: functional; conditions: Homo sapiens

{"molecule": "CCCCCC/C=C\\[N+]([O-])=N\\[C@@H](COC)[C@H](C)O", "reading.unit": "µg/mL", "limit.sign": "=", "GI50": 30.4}
{"molecule": "COC[C@H](/N=[N+]([O-])/C=C/CCCCC(C)=O)[C@H](C)O", "reading.unit": "µg/mL", "limit.sign": ">", "GI50": 50}
{"molecule": "COC[C@H](/N=[N+](\\[O-])CCCCCCC(C)=O)[C@H](C)O", "reading.unit": "µg/mL", "limit.sign": ">", "GI50": 50}
{"molecule": "CCCCCCCC/[N+]([O-])=N/[C@@H](COC)C(N)=O", "reading.unit": "µg/mL", "limit.sign": "=", "GI50": 38.2}
{"molecule": "CCCCCC(O)/C=C/[N+]([O-])=N/[C@@H](COC)[C@H](C)O (stereo partly specified)", "reading.unit": "µg/mL", "limit.sign": "=", "GI50": 31.2}
{"molecule": "CCCCCCCC/[N+]([O-])=N/[C@@H](COC)[C@H](C)O", "reading.unit": "µg/mL", "limit.sign": ">", "GI50": 50}
